assayed_target: panel of 44 targets (GPCRs, ion channels, enzymes, transporters, nuclear receptors)
condition_info: read-out: IC50 (M) Reference Compound
measurement_type: IC50 (M)
# value in M; strip the unit string

The compound CNC1(C)C2CCC(C2)C1(C)C (stereo not shown) showed IC50 equal to 8.31e-07

* * *

Parameter: % Viability Persister. Scope: all listed entries.
System: DTP cells derived from PC9
experimental_details: Drug-tolerant persister cell model, DTP cells
condition_info: dose 10.0 μM; 48 hours
Kindly answer with a numeric value in %, unit omitted.

Below are worked cases with known answers.
In [3]: df
Out[3]:
                                   compound  endpoint_value
0  CC(C)(COC(=O)CCl)NC(=O)c1cc2ccc(Br)cc2[nH]1 [QW-156]           73.25
1  CC(C)(NC(=O)c1nn(Cc2ccc(Cl)cc2)c2cc(-c3ccc(N4CCOCC4)c(Cl)c3)ccc12)C(C)(C)OC(=O)CCl [QW-811]            4.75
2  CC(C)(COC(=O)CCl)NC(=O)c1nn(Cc2cc(Cl)cc(Cl)c2)c2cc(-c3ccc(N4CCOCC4)c(Cl)c3)ccc12 [QW-852]            3.25

Turning now to a further record.
// % Viability Persister lookup, compound = COc1ccc(-c2ccc3c(C(=O)NC(C)(C)COC(=O)CCl)nn(C)c3c2)cc1Cl [QW-446] , result: 26.50

* * *

experimental_details: in vitro
condition_info: mouse, plasma
measurement_type: half-life

>>> print(df.to_string())
                                   compound  endpoint_value
0  Cn1nc(C(=O)NC(C)(C)COC(=O)CCl)c2ccc(Br)cc21 [QW-314]        40.7 min

COc1cccc2[nH]c(C(=O)n3ccnc3)cc12 [LOC1886, reference compound] yielded half-life of < 2 min

* * *

assayed_target: panel of 44 targets (GPCRs, ion channels, enzymes, transporters, nuclear receptors) (Homo sapiens)
Sequence (P08913 1-465): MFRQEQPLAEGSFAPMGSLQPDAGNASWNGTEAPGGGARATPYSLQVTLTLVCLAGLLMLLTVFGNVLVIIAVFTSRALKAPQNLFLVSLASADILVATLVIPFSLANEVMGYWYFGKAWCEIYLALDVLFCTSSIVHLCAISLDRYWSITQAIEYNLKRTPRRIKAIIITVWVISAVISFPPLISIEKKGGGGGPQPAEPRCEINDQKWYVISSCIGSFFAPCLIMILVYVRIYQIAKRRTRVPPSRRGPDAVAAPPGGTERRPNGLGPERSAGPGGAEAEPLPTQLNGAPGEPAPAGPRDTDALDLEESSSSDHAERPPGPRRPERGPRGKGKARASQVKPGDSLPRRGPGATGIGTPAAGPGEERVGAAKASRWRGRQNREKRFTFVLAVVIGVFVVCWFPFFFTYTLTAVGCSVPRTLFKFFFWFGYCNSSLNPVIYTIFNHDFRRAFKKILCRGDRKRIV
condition_info: Adrenergic a2A; RL [3H]-RX821002 5 nM; read-out: IC50 (M) Reference Compound (EC50 for agonist)
measurement_type: IC50 (M)
Value expressed in M; do not type the unit.

Entry COC1(C2=NCCN2)COc2ccccc2O1 (stereo not shown) [RX821002] , IC50 reported as 8.51e-09

* * *

This section presents compounds with their documented GPX4% inhibition at 5 μM values.
assayed_target: GPX4 (Homo sapiens)
experimental_details: GPX4 activity assay in cell lysates (NADPH-coupled)
Type: biochemical
Parameters: endogenous in cells; host or cells: A-673 cell lysate
condition_info: 5 μM; generation 2
Just the number in %, nothing appended.

Examples with their reported GPX4% inhibition at 5 μM follow.
                                   compound          measurement_type  endpoint_value
0  CC=CC(=O)OCC(C)(C)NC(=O)c1nn(C)c2cc(Br)ccc12 [QW-414]  GPX4% inhibition at 5 μM            −9.1
1  Cn1nc(C(=O)NCCCCC=O)c2ccc(Br)cc21 [QW-527]  GPX4% inhibition at 5 μM           −24.5
2  COC(=O)C=CC(=O)OCC(C)(C)NC(=O)c1nn(C)c2ccccc12 [QW-412]  GPX4% inhibition at 5 μM            −5.7
3  Cn1nc(C(=O)NCCCCCOC(=O)CCl)c2ccc(Br)cc21 [QW-521]  GPX4% inhibition at 5 μM           −19.3
4  Cc1cc(C(=O)OCC(C)(C)NC(=O)c2nn(C)c3cc(Br)ccc23)no1 [QW-429]  GPX4% inhibition at 5 μM            −2.3
5  C#CC(=O)OCC(C)(C)NC(=O)c1nn(C)c2cc(Br)ccc12 [QW-420]  GPX4% inhibition at 5 μM           −10.9

Note to self: GPX4% inhibition at 5 μM recorded for Cn1nc(C(=O)NC(C)(C)COC(=O)CCl)c2ccc([N+](=O)[O-])cc21 [QW-380] was 62.1

Form field GPX4% inhibition at 5 μM, entry COc1cccc2c(C(=O)NC(C)(C)COC(=O)CCl)nn(C)c12 [QW-398] : 20.3

* * *

Listing of recorded GPX4% inhibition at 2.5 μM by entry.
assayed_target: GPX4 (Homo sapiens, UniProt P36969)
Sequence (P36969 1-170 isoform P36969-2): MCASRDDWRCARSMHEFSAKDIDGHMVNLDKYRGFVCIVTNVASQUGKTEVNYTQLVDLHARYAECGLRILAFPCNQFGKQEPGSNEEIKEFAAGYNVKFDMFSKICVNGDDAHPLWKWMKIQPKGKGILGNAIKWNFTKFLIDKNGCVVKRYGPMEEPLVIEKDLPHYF
experimental_details: GPX4 activity assay in cell lysates (NADPH-coupled)
Assay type: biochemical
Set-up: endogenous in cells; host or cells: A-673 cell lysate
condition_info: 2.5 μM
Hi! Could you send only the number? It should be in %, unit omitted.

compound COc1ncc(-c2ccc3c(C(=O)NC(C)(C)COC(=O)CCl)nn(C)c3c2)cc1F , GPX4% inhibition at 2.5 μM observed: 32.6

* * *

Reported Plasma Stability t1/2 (min) human values follow for various molecules
Your answer is read as min, so omit the unit and give the number.

Sample records with Plasma Stability t1/2 (min) human:
                                   molecule  uom  endpoint_value
0  Cn1nc(-n2cc(C(C)(C)COC(=O)CCl)nn2)c2ccc(-c3ccc(N4CCOCC4)c(Cl)c3)cc21  min            67.4
1  COc1c(Cl)cc(-c2ccc3c(C(=O)NC(C)(C)C(C)OC(=O)CCl)nn(C)c3c2)cc1Cl (racemic)  min             245
2  Cn1nc(C(=O)NC(C)(C)COC(=O)CCl)c2ccc(-c3ccc(Cl)c(Cl)c3)cc21  min            56.7

For record COc1c(Cl)cc(-c2ccc3c(C(=O)NC(C)(C)C(C)(C)OC(=O)CCl)nn(C)c3c2)cc1Cl the listed Plasma Stability t1/2 (min) human is 290

Plasma Stability t1/2 (min) human recorded for this molecule, Cn1nc(C(=O)NC(C)(C)COC(=O)CCl)c2ccc(-c3csc4ccccc34)cc21 , is 10.2

* * *

assayed_target: panel of 44 targets (GPCRs, ion channels, enzymes, transporters, nuclear receptors) (Homo sapiens, UniProt P28222)
Sequence (P28222 whole entry, looked up): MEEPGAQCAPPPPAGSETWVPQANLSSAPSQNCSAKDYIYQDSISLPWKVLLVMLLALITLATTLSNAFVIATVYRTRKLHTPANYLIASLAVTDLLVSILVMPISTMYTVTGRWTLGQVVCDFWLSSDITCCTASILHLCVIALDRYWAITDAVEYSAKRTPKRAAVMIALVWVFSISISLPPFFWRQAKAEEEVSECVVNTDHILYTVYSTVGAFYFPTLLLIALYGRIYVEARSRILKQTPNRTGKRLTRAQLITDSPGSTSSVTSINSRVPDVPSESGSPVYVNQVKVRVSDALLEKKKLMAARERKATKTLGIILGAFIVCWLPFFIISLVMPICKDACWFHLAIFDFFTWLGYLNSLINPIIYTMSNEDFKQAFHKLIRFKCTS
condition_info: IC50 (M) Reference Compound (EC50 for agonist)
measurement_type: IC50

// field: IC50; key: COc1ccc(NC(=O)c2ccc(-c3ccncc3)c(C)c2)cc1N1CCN(C)CC1 [GR125743] ; value = 1.49e-08 M

* * *

assayed_target: GPX4 (Homo sapiens, UniProt P36969)
experimental_details: GPX4 activity assay in cell lysates (NADPH-coupled)
condition_info: mean±SD, n=3 (FIG. 84E); read-out: IC50 in the in vitro GPX4 activity assay
As shown below, each of these molecules has a reported IC50 value.
Remember to quote the unit after the number.

In [3]: df
Out[3]:
                                   molecule  endpoint_value
0  COC(=O)c1ccc([C@@H]2c3[nH]c4ccccc4c3C[C@@H](C(=O)OC)N2C(=O)CCl)cc1 [RSL3, reference compound]          7.6 µM
1  Cn1nc(C(=O)NC(C)(C)COC(=O)CCl)c2ccc(Br)cc21          5.8 µM

Attention now shifts to the item below.
So, COc1ccc(-c2ccc3c(C(=O)NC(C)(C)COC(=O)CCl)nn(C)c3c2)cc1Cl ? Its IC50 was 0.49 µM

* * *

Tested on: HT-1080 cells
experimental_details: Cellular dose response assay, HT-1080 with and without Fer-1
Type: cell-based, human
condition_info: HT1080, without Fer-1; read-out: IC50 (uM) HT1080
Overview of recorded IC50 for various molecules
Just the number please, in µM, no unit attached.

>>> print(df.to_string())
                                   compound  assayed_target  endpoint_value
0  Cn1nc(-n2cc(C(C)(C)COC(=O)CCl)nn2)c2ccc(-c3ccc(N4CCOCC4)c(Cl)c3)cc21   HT-1080 cells               3
1  Cn1nc(-n2cc(C(C)(C)COC(=O)CCl)nn2)c2ccc(-c3ccc(OC(F)(F)F)c(Cl)c3)cc21   HT-1080 cells            1.65
2  COc1c(Cl)cc(-c2ccc3c(-n4cc(C(C)(C)COC(=O)CCl)nn4)nn(C)c3c2)cc1Cl   HT-1080 cells             1.9
3  COc1ccc(-c2ccc3c(C(=O)NC(C)(C)C(C)(C)OC(=O)CCl)nn(C)c3c2)cc1Br   HT-1080 cells             1.2
4  COc1c(Cl)cc(-c2ccc3c(C(=O)NC(C)(C)COC(=O)CCl)nn(C)c3c2)cc1C(F)(F)F   HT-1080 cells            0.58

Next molecule, IC50 to be filled in.
Entry COc1ccc(-c2ccc3c(-n4cc(C(C)(C)CNC(=O)CCl)nn4)nn(C)c3c2)cc1Cl ; IC50 = 1.1
